- Tested on: A375 multi-cell spheroids with HUVEC/MSC, viability
- protocol-text: Anticancer human tumor A375 cell line growth inhibition [GQUAD]; active = viability on the fitted dose curve at most 10% of control; inactive = the rest;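 note: spheroids exposed to compounds for seven days before readout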
- assay-context: second compound 1 µM; first compound 3.16 µM
Lab note: assign the record to one of active, inactive

Asked: Tell me the recorded outcome of this test for COc1ncnc(C2CC2)c1-c1ncc2cnn(Cc3ccc(-c4nc(C(F)(F)F)cn4C(C)C)cc3)c2n1 + Cc1cnc(CNC(=O)c2c(=O)c3ccc(N4CCCN(C)CC4)nc3n3c2sc2ccccc23)cn1 .
Given back: inactive

Asked: What do you get for CC(C)n1c(=O)n(C)c2cnc3cc(F)c(-c4ccc(OCCCN5CCCCC5)nc4)cc3c21 + CN(C)c1ccc(Nc2c3ccc(NC(=O)CCN4CCCC4)cc3nc3cc(NC(=O)CCN4CCCC4)ccc23)cc1 ?
Given back: inactive

Asked: Also, C=CCn1c(=O)c2cnc(Nc3ccc(N4CCN(C)CC4)cc3)nc2n1-c1cccc(C(C)(C)O)n1 + Cc1[nH]c2ccc(F)cc2c1-c1nc2c3cccnc3c3ncccc3c2[nH]1 please.
Given back: inactive

Asked: Would you kindly repeat that for O=C(NO)c1cnc(N2CCN(S(=O)(=O)c3ccc4ccccc4c3)CC2)nc1 + CN(C)c1ccc(Nc2c3ccc(NC(=O)CCN4CCCC4)cc3nc3cc(NC(=O)CCN4CCCC4)ccc23)cc1 ?
Given back: active

###

- System: A375 multi-cell spheroids with HUVEC/MSC, viability
- protocol-text: Anticancer human tumor A375 cell line growth inhibition [GQUAD]; active means viability on the fitted dose curve at most 10% of control; inactive means the rest;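 note: spheroids exposed to compounds for seven days before readout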
- assay-context: second compound 3.16 µM; first compound 10 µM
Reply using exactly one outcome from yes (1) for active, no (0) for inactive

Asked: Hello, I am checking results. What call was entered for CC(=O)O[C@H]1C(=O)[C@@]2(C)[C@H]([C@H](OC(=O)c3ccccc3)[C@]3(O)C[C@H](OC(=O)[C@H](O)[C@@H](NC(=O)c4ccccc4)c4ccccc4)C(C)=C1C3(C)C)[C@]1(OC(C)=O)CO[C@@H]1C[C@@H]2O + CN(C)c1ccc(Nc2c3ccc(NC(=O)CCN4CCCC4)cc3nc3cc(NC(=O)CCN4CCCC4)ccc23)cc1 ?
Given back: no (0)

Asked: Next record, please: C=CCn1c(=O)c2cnc(Nc3ccc(N4CCN(C)CC4)cc3)nc2n1-c1cccc(C(C)(C)O)n1 + CN(C)c1ccc(Nc2c3ccc(NC(=O)CCN4CCCC4)cc3nc3cc(NC(=O)CCN4CCCC4)ccc23)cc1
Given back: yes (1)

Asked: Now the same for C#Cc1c(F)ccc2cc(O)cc(-c3ncc4c(N5CC6CCC(C5)N6)nc(OCC56CCCN5CC(F)C6)nc4c3F)c12 (centres undefined) + Cc1[nH]c2ccc(F)cc2c1-c1nc2c3cccnc3c3ncccc3c2[nH]1
Given back: no (0)

Asked: Further, for Nc1ccn(C2OC(CO)C(O)C2(F)F)c(=O)n1 (centres undefined) + CN(C)c1ccc(Nc2c3ccc(NC(=O)CCN4CCCC4)cc3nc3cc(NC(=O)CCN4CCCC4)ccc23)cc1 ?
Given back: yes (1)

###

- Tested on: A375 multi-cell spheroids with HUVEC/MSC, viability
- protocol-text: Anticancer human tumor A375 cell line growth inhibition [GQUAD];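 note: spheroids exposed to compounds for seven days before readout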
- assay-context: curve of first compound; second compound 3.16 µM
experimental-readout: IC50 (nM)
Numeric answer only, unit nM assumed.

Asked: For the compound CC1COCCN1c1cc(C2(O)CC3CCC(C2)O3)c2cnn(-c3ccn[nH]3)c2n1 (stereo unspecified) + CN(C)c1ccc(Nc2c3ccc(NC(=O)CCN4CCCC4)cc3nc3cc(NC(=O)CCN4CCCC4)ccc23)cc1 , what IC50 is on record?
Given back: 226

Asked: Would you kindly repeat that for COc1cccc2c1C(=O)c1c(O)c3c(c(O)c1C2=O)CC(O)(C(=O)CO)CC3OC1CC(N)C(O)C(C)O1 (stereo unspecified) + CN(C)c1ccc(Nc2c3ccc(NC(=O)CCN4CCCC4)cc3nc3cc(NC(=O)CCN4CCCC4)ccc23)cc1 ?
Given back: 229

Asked: Same for COc1ncnc(C2CC2)c1-c1ncc2cnn(Cc3ccc(-c4nc(C(F)(F)F)cn4C(C)C)cc3)c2n1 + Cc1[nH]c2ccc(F)cc2c1-c1nc2c3cccnc3c3ncccc3c2[nH]1
Given back: 3730

Asked: Now this one: CC[C@@]1(O)C(=O)OCc2c1cc1n(c2=O)Cc2cc3c(CN(C)C)c(O)ccc3nc2-1 + CN(C)c1ccc(Nc2c3ccc(NC(=O)CCN4CCCC4)cc3nc3cc(NC(=O)CCN4CCCC4)ccc23)cc1
Given back: 49.5

Asked: What would you report for Cc1[nH]c2ccccc2c1CCNCc1ccc(/C=C/C(=O)NO)cc1 + Cc1[nH]c2ccc(F)cc2c1-c1nc2c3cccnc3c3ncccc3c2[nH]1 ?
Given back: 60.6

Asked: Queued: CC1COCCN1c1cc(C2(S(C)(=N)=O)CC2)nc(-c2ccnc3[nH]ccc23)n1 (stereo unspecified) + CN(C)c1ccc(Nc2c3ccc(NC(=O)CCN4CCCC4)cc3nc3cc(NC(=O)CCN4CCCC4)ccc23)cc1
Given back: 7460

Asked: Try this compound next: CC1COCCN1c1cc(-c2ccnn2C)c2ccnc(-c3ccn[nH]3)c2n1 (stereo unspecified) + Cc1[nH]c2ccc(F)cc2c1-c1nc2c3cccnc3c3ncccc3c2[nH]1
Given back: 35.1

###

- Test system: A375 multi-cell spheroids with HUVEC/MSC, viability
- protocol-text: Anticancer human tumor A375 cell line growth inhibition [GQUAD];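 note: spheroids exposed to compounds for seven days before readout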
- assay-context: second compound 0.0316 µM; first compound 0.0316 µM; stronger effect = lower value
experimental-readout: viability, T/C (%)
Field: numeric (%). Do not append units.

Asked: Query: viability, T/C; subject: O=c1[nH]cc(F)c(=O)[nH]1 + Cc1[nH]c2ccc(F)cc2c1-c1nc2c3cccnc3c3ncccc3c2[nH]1
Given back: 102

Asked: Note, next up: CC1COCCN1c1cc(C2(S(C)(=N)=O)CC2)nc(-c2ccnc3[nH]ccc23)n1 (stereo not given) + CN(C)c1ccc(Nc2c3ccc(NC(=O)CCN4CCCC4)cc3nc3cc(NC(=O)CCN4CCCC4)ccc23)cc1
Given back: 102

Asked: Now the same for Cn1ncnc1[C@H]1c2n[nH]c(=O)c3cc(F)cc(c23)N[C@@H]1c1ccc(F)cc1 + Cc1cnc(CNC(=O)c2c(=O)c3ccc(N4CCCN(C)CC4)nc3n3c2sc2ccccc23)cn1
Given back: 97.4

Asked: Please do the same for Cc1[nH]c2ccccc2c1CCNCc1ccc(/C=C/C(=O)NO)cc1 + Cc1[nH]c2ccc(F)cc2c1-c1nc2c3cccnc3c3ncccc3c2[nH]1 as well.
Given back: 112

Asked: Quick one: COc1ncnc(C2CC2)c1-c1ncc2cnn(Cc3ccc(-c4nc(C(F)(F)F)cn4C(C)C)cc3)c2n1 + Cc1cnc(CNC(=O)c2c(=O)c3ccc(N4CCCN(C)CC4)nc3n3c2sc2ccccc23)cn1
Given back: 101

Asked: Another compound to check: CC[C@@]1(O)C(=O)OCc2c1cc1n(c2=O)Cc2cc3c(CN(C)C)c(O)ccc3nc2-1 + Cc1cnc(CNC(=O)c2c(=O)c3ccc(N4CCCN(C)CC4)nc3n3c2sc2ccccc23)cn1
Given back: 44.1

Asked: How about this compound: CC(=O)O[C@H]1C(=O)[C@@]2(C)[C@H]([C@H](OC(=O)c3ccccc3)[C@]3(O)C[C@H](OC(=O)[C@H](O)[C@@H](NC(=O)c4ccccc4)c4ccccc4)C(C)=C1C3(C)C)[C@]1(OC(C)=O)CO[C@@H]1C[C@@H]2O + CN(C)c1ccc(Nc2c3ccc(NC(=O)CCN4CCCC4)cc3nc3cc(NC(=O)CCN4CCCC4)ccc23)cc1
Given back: 86.3

Asked: Also need O=C(c1cc(Cc2n[nH]c(=O)c3ccccc23)ccc1F)N1CCN(C(=O)C2CC2)CC1 + Cc1cnc(CNC(=O)c2c(=O)c3ccc(N4CCCN(C)CC4)nc3n3c2sc2ccccc23)cn1 , thanks.
Given back: 108

Asked: Would you kindly repeat that for C=CCn1c(=O)c2cnc(Nc3ccc(N4CCN(C)CC4)cc3)nc2n1-c1cccc(C(C)(C)O)n1 + CN(C)c1ccc(Nc2c3ccc(NC(=O)CCN4CCCC4)cc3nc3cc(NC(=O)CCN4CCCC4)ccc23)cc1 ?
Given back: 99.7

Asked: Check C=CC(=O)N1CCN(c2nc(=O)n(-c3c(C)ccnc3C(C)C)c3nc(-c4c(O)cccc4F)c(F)cc23)C(C)C1 (stereo not given) + CN(C)c1ccc(Nc2c3ccc(NC(=O)CCN4CCCC4)cc3nc3cc(NC(=O)CCN4CCCC4)ccc23)cc1 too.
Given back: 107

###

- Tested on: A375 multi-cell spheroids with HUVEC/MSC, viability
- protocol-text: Anticancer human tumor A375 cell line growth inhibition [GQUAD];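 note: spheroids exposed to compounds for seven days before readout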
- assay-context: curve of first compound; second compound 3.16 µM
pIC50: −log10 of the molar value.
Kindly supply the reported pIC50 values for the records listed here.

Asked: Item under review: Nc1ccn(C2OC(CO)C(O)C2(F)F)c(=O)n1 (stereo not drawn) + Cc1cnc(CNC(=O)c2c(=O)c3ccc(N4CCCN(C)CC4)nc3n3c2sc2ccccc23)cn1 . Reported pIC50?
Given back: > 7.50

Asked: Quick one: CCc1c2c(nc3ccc(O)cc13)-c1cc3c(c(=O)n1C2)COC(=O)[C@]3(O)CC + CN(C)c1ccc(Nc2c3ccc(NC(=O)CCN4CCCC4)cc3nc3cc(NC(=O)CCN4CCCC4)ccc23)cc1
Given back: > 9.00

Asked: Subsequent entry: Cc1[nH]c2ccccc2c1CCNCc1ccc(/C=C/C(=O)NO)cc1 + Cc1cnc(CNC(=O)c2c(=O)c3ccc(N4CCCN(C)CC4)nc3n3c2sc2ccccc23)cn1
Given back: > 9.00
